ASSAY_DETAILS: Plasma pharmacokinetics of pevonedistat (LC/MS/MS, noncompartmental analysis)
Assay type: in vivo, human
MEASUREMENT_SETUP: human, plasma, iv, cycle 1 day 1; dose level 3, pevonedistat 37 mg/m^2 IV (belinostat 800 mg/m^2); mean±SD, n=3; read-out: preEOI Cmax (peak plasma concentration)
MEASUREMENT_KIND: Cmax
Please format your answer as a value with the unit trailing.

GET /value?item= NS(=O)(=O)OC[C@@H]1C[C@@H](n2ccc3c(N[C@H]4CCc5ccccc54)ncnc32)C[C@@H]1O [Pevonedistat] &field=Cmax returns 897 nM

###

ASSAY_DETAILS: Plasma pharmacokinetics of belinostat and belinostat glucuronide (LC/MS/MS, noncompartmental analysis)
MEASUREMENT_SETUP: human, plasma, iv, AUCINF, cycle 1 day 1; dose level 3, belinostat 800 mg/m^2 IV (pevonedistat 37 mg/m^2); n=2, actual values
MEASUREMENT_KIND: AUC(0-inf) (µM·h)
Respond numerically; units are µM·h and should not be typed.

Sample O=C(/C=C/c1cccc(S(=O)(=O)Nc2ccccc2)c1)NO ; AUC(0-inf) observed: 61
